Tested on: tat protein
experiment: competition filter binding assay with chemically synthesized RNA (Table 4)
Parameters: species or system HIV-1
conditionContext: 32P-end labelled 18-mer annealed to 15-mer 10 nM, 40 nM tat, competitor 0-120 nM; read-out: D1/2
Method: Competition binding reactions (0.5ml) in TK buffer (50 mM Tris.HCl(pH7.9 at 0.5M and 22° G), 20 mM KCl ) included 10nM ^32 p labeled 59-mer (ca. 20,000 cpm) , 40nM tat protein, 5 ug/ml calf thymus DNA, 2 ug/ml yeast tRNA, 40 units of RNAsin (Promega) and varying concentrations (0-300 nM) of unlabeled competitor RNA (59-mer [SEQ ID NO: 1; ], 29-mer [SEQ ID NO: 12] or preannealed (slow cooled from 90° C.) 14-mer [SEQ ID NO: 14; nucleotides 2-15] and 17-mer [SEQ ID NO: 13; nucleotides 1- 17]). […]
[4sT] = 4-thio-2'-deoxythymidine; d = 2'-deoxy (DNA); r = 2'-OH (RNA)
Form field: IC50 (one value per entry).
# unit: nM | format: bare number

Value lookup for IC50; key = HIV-1 TAR (UUU): full length HIV-1 TAR RNA of 59 residues prepared by transcription, wild type, UUU bulge (GGGUCUCUCUGGUUAGACCAGAUUUGAGCCUGGGAGCUCUCUGGCUAACUAGGGAACCC; unmodified RNA) [reference compound]
18

Moving on to 15 +18: duplex of unmodified 18-mer [SEQ ID NO: 13] and 15-mer [SEQ ID NO: 14] containing a U-rich bulge (chain 1 AGCCAGAUUUGAGCAGCU; chain 2 AGCUGCUCUCUGGCU; RNA, phosphodiester; duplex with U-rich bulge)
65

Similarly, 4-thioT-25: 15-mer annealed to 18-mer where U25 is replaced by 4-thio-2'-deoxythymidine (AGCCAGAUUTGAGCAGCU; DNA at 10, [4sT] at 10, other sugars and backbone not given here; annealed to a 15-mer strand, further chemistry not fully specified) ?
12

// repeat for 4-thioT-24: 15-mer annealed to 18-mer where U24 is replaced by 4-thio-2'-deoxythymidine (AGCCAGAUTUGAGCAGCU; sugars from the 5' end r8 d1 r9, [4sT] at 9, backbone not given here; annealed to 15-mer strand) and report
25
